Molecular target: SpLsb1
Assay: SPOT peptide array binding signal intensity (averaged, normalized) (arbitrary units (background-subtracted, floor 0; scale differs between SH3 domains)); higher = stronger binding of the SH3 domain to the peptide
Response field class: enum, chosen by comparing SPOT peptide array binding signal intensity against LOW = under 4, MID = from 4 up to 40, HIGH = 40 and over

binder=YRRKSIPFAPHQITA class_label=MID

**Query** Hi, small favor: classify `NLKKRPPTAPQRKIS` by its SPOT peptide array binding signal intensity when you get a moment.
**Result** MID

**Query** Given `RSRRSSFAYPQQVAI` , name the class its SPOT peptide array binding signal intensity places it in.
**Result** MID

**Query** Please indicate the class for `NLPKRKPPKLQGPFS` based on its SPOT peptide array binding signal intensity.
**Result** MID

**Query** Which category does the recorded SPOT peptide array binding signal intensity put `RAPPPVPKKPSSRIA` in?
**Result** HIGH

**Query** State the class of the binder shown: `RMVRRRPLRVQFSAR`
**Result** MID

**Query** The entry to classify is `RTIRKLPLMSLSEYF` ; which class holds it?
**Result** LOW

**Query** Looking at `AGKRRLPLVRFKASD` , which class would you pick?
**Result** MID

**Query** Quick check: band for `LKVTPGRRAPTISKI`
**Result** LOW

**Query** Assign a category based on measured SPOT peptide array binding signal intensity for `HGKRRAPLLLAKLDV` and give only the class name.
**Result** LOW

**Query** Note: place this binder into its band. Item: `TSFKGRPKPPKTLKH`
**Result** LOW
